Biological target: GppNp-loaded HIS-KRAS(G12D, aa 1-169) and cRAF RBD (Homo sapiens, UniProt P01116, G12D)
Construct: GppNp-loaded HIS-KRAS(G12D, aa 1-169)
Sequence (P01116 1-169 isoform P01116-2 G12D): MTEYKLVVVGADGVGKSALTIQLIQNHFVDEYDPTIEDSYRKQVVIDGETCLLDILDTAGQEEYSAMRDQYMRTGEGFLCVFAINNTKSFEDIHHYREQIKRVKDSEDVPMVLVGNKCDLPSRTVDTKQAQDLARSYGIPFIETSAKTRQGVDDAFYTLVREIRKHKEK
Experiment: GTP-KRAS and cRAF interaction assay (HTRF)
Conditions: 2 hours at 25° C.
Please respond with true when measured IC50 is strictly beneath 0.2 µM, and with false in all other cases.

1. C#Cc1cccc2cc(O)cc(-c3c(F)cc4c(N5CC6CCC(C5)N6)nc(OCC5(CN6CC7(CCCCO7)C6)CC5)nc4c3F)c12 ... true
2. C#Cc1cccc2cc(O)cc(-c3c(F)cc4c(N5CC6CCC(C5)N6)nc(OCC5(CN6CCc7cccnc7C6)CC5)nc4c3F)c12 ... true
3. C#Cc1cccc2cc(O)cc(-c3c(F)cc4c(N5CC6CCC(C5)N6)nc(OCC5(CN6CCOCC67CCC7)CC5)nc4c3F)c12 ... true
4. C#Cc1cccc2cc(O)cc(-c3c(F)cc4c(N5CC6CCC(C5)N6)nc(OCC5(CN6CC7(CC(O)C7)C6)CC5)nc4c3F)c12 ... true
5. C#Cc1cccc2cc(O)cc(-c3ccc4c(N5CC6CCC(C5)N6)nc(OCC5(CN6CC7CCCC7C6)CC5)nc4c3F)c12 (stereo not drawn) ... true
6. C#Cc1cccc2cc(O)cc(-c3c(F)cc4c(N5CC6CCC(C5)N6)nc(OCC5(CN6CC7(CCOC7)C6)CC5)nc4c3F)c12 ... false
7. C#Cc1cccc2cc(O)cc(-c3c(F)cc4c(N5CC6CCC(C5)N6)nc(OCC5(CN6CC7(CCC7)C6)CC5)nc4c3F)c12 ... true
8. C#Cc1cccc2cc(O)cc(-c3c(F)cc4c(N5CC6CCC(C5)N6)nc(OCC5(CN6CCC7(CCCO7)C6)CC5)nc4c3F)c12 (stereo not drawn) ... true
9. C#Cc1cccc2cc(O)cc(-c3c(F)cc4c(N5CC6CCC(C5)N6)nc(OCC5(CN6CCC7(CCOC7)C6)CC5)nc4c3F)c12 (stereo not drawn) ... false
10. C#Cc1cccc2cc(O)cc(-c3c(F)cc4c(N5CC6CCC(C5)N6)nc(OCC5(CN6CCOC7(CC7)C6)CC5)nc4c3F)c12 (single isomer, unassigned) [Compound 2B] ... true
11. C#Cc1c(F)ccc2cc(O)cc(-c3c(Cl)cc4c(N5CC6CCC(C5)N6)nc(OCC5(CN6CC7CC6CO7)CC5)nc4c3F)c12 (single isomer, unassigned) [Compound 4B] ... true
12. C#Cc1cccc2cc(O)cc(-c3c(F)cc4c(N5CC6CCC(C5)N6)nc(OCC5(CN6CCC7(CC6)CC7(F)F)CC5)nc4c3F)c12 (single isomer, unassigned) [Compound 3A] ... false
